Recorded pKd by entry
B1: scFv; the commonest letter at each place (parent)
chain 1: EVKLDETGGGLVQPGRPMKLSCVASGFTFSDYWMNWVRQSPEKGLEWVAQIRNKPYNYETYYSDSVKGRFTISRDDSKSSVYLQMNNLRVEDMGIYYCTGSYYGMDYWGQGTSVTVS
chain 2: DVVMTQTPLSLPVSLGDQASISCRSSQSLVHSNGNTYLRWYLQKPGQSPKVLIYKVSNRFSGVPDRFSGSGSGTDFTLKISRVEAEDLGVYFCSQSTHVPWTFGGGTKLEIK

- Variants of: B1
- ASSAY_SUMMARY: Kd (Tite-Seq)
- CONDITION_LABEL: with fluorescein; format: scFv 4-4-20, heavy + light
pKd: −log10 of the molar value.

>  <VARIANT_DESCRIPTOR>
chain 1 Y103E G109I

>  <SIGN_QUALIFIER>
≤

>  <pKd>
5.00

$$$$
>  <VARIANT_DESCRIPTOR>
chain 1 Y102S W108T

>  <SIGN_QUALIFIER>
≥

>  <pKd>
9.50

$$$$
>  <VARIANT_DESCRIPTOR>
chain 1 M34K

>  <SIGN_QUALIFIER>
=

>  <pKd>
6.16

$$$$
>  <VARIANT_DESCRIPTOR>
chain 1 M34K W36C

>  <SIGN_QUALIFIER>
≤

>  <pKd>
5.00

$$$$
>  <VARIANT_DESCRIPTOR>
chain 1 Y102V G104N

>  <SIGN_QUALIFIER>
≤

>  <pKd>
5.00

$$$$
>  <VARIANT_DESCRIPTOR>
chain 1 T28I Y32S

>  <SIGN_QUALIFIER>
=

>  <pKd>
5.65

$$$$
>  <VARIANT_DESCRIPTOR>
chain 1 S30Q Y32V

>  <SIGN_QUALIFIER>
≤

>  <pKd>
5.00

$$$$
>  <VARIANT_DESCRIPTOR>
chain 1 T28L S30A

>  <SIGN_QUALIFIER>
=

>  <pKd>
8.76

$$$$
>  <VARIANT_DESCRIPTOR>
chain 1 F29Q W36H

>  <SIGN_QUALIFIER>
≤

>  <pKd>
5.00

$$$$
>  <VARIANT_DESCRIPTOR>
chain 1 M105F G109L

>  <SIGN_QUALIFIER>
≤

>  <pKd>
5.00

$$$$
>  <VARIANT_DESCRIPTOR>
chain 1 S30Q V37E

>  <SIGN_QUALIFIER>
≤

>  <pKd>
5.00

$$$$
>  <VARIANT_DESCRIPTOR>
chain 1 G100N M105T

>  <SIGN_QUALIFIER>
≤

>  <pKd>
5.00

$$$$
>  <VARIANT_DESCRIPTOR>
chain 1 M34P V37Q

>  <SIGN_QUALIFIER>
=

>  <pKd>
5.65

$$$$
>  <VARIANT_DESCRIPTOR>
chain 1 Y32M V37T

>  <SIGN_QUALIFIER>
≤

>  <pKd>
5.00

$$$$
>  <VARIANT_DESCRIPTOR>
chain 1 G100R Y107N G109K

>  <SIGN_QUALIFIER>
≤

>  <pKd>
5.00

$$$$
>  <VARIANT_DESCRIPTOR>
chain 1 Y107T

>  <SIGN_QUALIFIER>
=

>  <pKd>
9.11

$$$$
>  <VARIANT_DESCRIPTOR>
chain 1 G100S D106E

>  <SIGN_QUALIFIER>
=

>  <pKd>
7.27

$$$$
>  <VARIANT_DESCRIPTOR>
chain 1 T28P Y32R

>  <SIGN_QUALIFIER>
=

>  <pKd>
5.25

$$$$
>  <VARIANT_DESCRIPTOR>
chain 1 T28H

>  <SIGN_QUALIFIER>
=

>  <pKd>
8.80

$$$$
>  <VARIANT_DESCRIPTOR>
chain 1 S30M Y32H

>  <SIGN_QUALIFIER>
=

>  <pKd>
7.14

$$$$
>  <VARIANT_DESCRIPTOR>
chain 1 S101V Y102E

>  <SIGN_QUALIFIER>
≤

>  <pKd>
5.00

$$$$
>  <VARIANT_DESCRIPTOR>
chain 1 G104Q Y107G W108I

>  <SIGN_QUALIFIER>
≤

>  <pKd>
5.00

$$$$
